tested on: ACHN; test: NCI tumour cell line growth inhibition, 48 h
The source made the active and inactive calls. Rule as the data show it: active = GI50 up to about 1.1 µM and inactive = higher.

molecule	target.or.system	GI50
CC1(C)C2CCC1(C)C(OC(=O)/C=C/C(=O)OC1CC3CCC1(C)C3(C)C)C2 (stereo unspecified)	ACHN	> 100 µM (inactive)
COC(=O)c1ccc(CCC2=CC(=O)C(Br)=CC2=O)cc1	ACHN	12.6 µM (inactive)
Nc1nc(SCC(=O)c2ccccc2)nc2nc3c(c(-c4ccccc4)c12)CCCC3	ACHN	56.6 µM (inactive)
O=[N+]([O-])c1ccc2c(c1)Sc1ccccc1N2	ACHN	64.1 µM (inactive)
CC(C)(C)c1cc(CCC(=O)Nc2ccc(Cl)cc2)nc(NC#N)n1	ACHN	> 100 µM (inactive)
CCN(CC)C(=O)COc1ccc(Br)cc1Br	ACHN	> 100 µM (inactive)
